- Target Of Assay: TAAR10b (Danio rerio, UniProt Q5QNN3, A166T/H113R/V182I/V259M)
- Sequence (Q5QNN3 1-336 H113R/A166T/V182I/V259M): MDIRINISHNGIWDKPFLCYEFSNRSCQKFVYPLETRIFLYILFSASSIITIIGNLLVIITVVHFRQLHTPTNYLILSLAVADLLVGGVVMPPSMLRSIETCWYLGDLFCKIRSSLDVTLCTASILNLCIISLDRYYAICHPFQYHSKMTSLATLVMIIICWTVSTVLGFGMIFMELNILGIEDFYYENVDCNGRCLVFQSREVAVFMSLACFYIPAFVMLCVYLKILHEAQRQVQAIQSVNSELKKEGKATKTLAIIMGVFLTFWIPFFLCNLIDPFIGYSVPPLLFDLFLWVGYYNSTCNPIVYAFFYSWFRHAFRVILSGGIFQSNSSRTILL
- Protocol Description: Cre-Seap reporter gene assay, TAAR10b in Hana3A cells
Readout Name: EC50 (µM)
Give a bare numeral; the unit µM is implied.

Q: For the record NCCc1c[nH]c2ccccc12 [tryptamine] , what value of EC50 is listed for TAAR10b (Danio rerio, UniProt Q5QNN3, A166T/H113R/V182I/V259M)?
Ans: 50

---

- Target Of Assay: zebrafish TAAR13d (Danio rerio, UniProt Q5QNQ1, I38V/T66P/V128I/V187I)
- Sequence (Q5QNQ1 entry or part of it I38V/T66P/V128I/V187I): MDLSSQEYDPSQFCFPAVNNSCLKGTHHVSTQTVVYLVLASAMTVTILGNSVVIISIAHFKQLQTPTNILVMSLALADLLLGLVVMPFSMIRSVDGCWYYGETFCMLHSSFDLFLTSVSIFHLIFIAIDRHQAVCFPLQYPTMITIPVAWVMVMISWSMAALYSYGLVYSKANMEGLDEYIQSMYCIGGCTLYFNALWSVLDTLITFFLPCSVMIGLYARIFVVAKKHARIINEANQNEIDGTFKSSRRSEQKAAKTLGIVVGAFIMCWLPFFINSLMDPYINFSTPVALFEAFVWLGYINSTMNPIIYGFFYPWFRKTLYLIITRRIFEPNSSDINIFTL
- Protocol Description: cell-based
- Study Conditions: HEK-293 cells, Cre-Seap reporter
Readout Name: EC50

Q: Sample NCCc1c[nH]cn1 [Histamine] — what was its EC50?
Ans: ~7 µM

---

- Target Of Assay: zebrafish TAAR10a (Danio rerio, UniProt Q5QNP6, I156V/V182I)
- Sequence (Q5QNP6 1-336 I156V/V182I): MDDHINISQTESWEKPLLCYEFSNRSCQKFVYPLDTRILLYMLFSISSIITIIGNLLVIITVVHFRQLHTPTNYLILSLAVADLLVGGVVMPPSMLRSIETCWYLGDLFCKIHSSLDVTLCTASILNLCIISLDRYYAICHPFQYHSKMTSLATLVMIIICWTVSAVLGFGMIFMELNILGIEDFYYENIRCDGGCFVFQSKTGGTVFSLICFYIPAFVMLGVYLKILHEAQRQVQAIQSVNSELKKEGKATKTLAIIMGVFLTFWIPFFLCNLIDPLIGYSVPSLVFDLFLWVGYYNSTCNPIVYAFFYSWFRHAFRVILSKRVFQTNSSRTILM
- Protocol Description: cell-based
- Study Conditions: HEK-293 cells, Cre-Seap reporter; read-out: EC50, TAAR10a
Readout Name: EC50

Q: Sample "NCCc1c[nH]c2ccccc12" — what was its EC50?
Ans: ~70 µM
